- System: Vesicular stomatitis virus
- procedure.details: Antiviral activity on the replication of vesicular stomatitis virus at 400 ug/mL.
- Assay type: functional, organism-based
Activity calls are given as the source filed them. No cut-off for these calls is given here.
assay.endpoint: Activity

Some molecules with recorded Activity:
| molecule | Activity |
| --- | --- |
| CCCCc1cn(C2O[C@H](COP(=O)(O)O)[C@@H](O)[C@H]2O)c(=O)nc1N (stereo not given in full) | inactive |
| CC(C)c1cn(C2O[C@H](COP(=O)(O)O)[C@@H](O)[C@H]2O)c(=O)nc1N (stereo not given in full) | inactive |
| Cc1cn([C@@H]2O[C@@H]3COP(=O)(O)O[C@H]3[C@H]2O)c(=O)nc1N.N | inactive |
| CCc1cn(C2O[C@H](COP(=O)(O)O)[C@@H](O)[C@H]2O)c(=O)nc1N (stereo not given in full) | inactive |

Now, please, on to the next molecule.
Incoming: Look up and state reported Activity for CCCCCCc1cn(C2O[C@H](COP(=O)(O)O)[C@@H](O)[C@H]2O)c(=O)nc1N (stereo not given in full)
Outgoing: inactive

* * *

- Species on record: Oryctolagus cuniculus
- procedure.details: Inhibition of rabbit skeletal muscle protein kinase I
- Type: functional
Assign Ka to each entry below.
Express the result in µM but write the number alone.

Incoming: Look up and state reported Ka for CCc1cn([C@@H]2O[C@@H]3COP(=O)(O)O[C@H]3[C@H]2O)c(=O)nc1N.N
Outgoing: 0.8

Incoming: Look up and state reported Ka for CCCCCCCCc1cn([C@@H]2O[C@@H]3COP(=O)(O)O[C@H]3[C@H]2O)c(=O)nc1N.N
Outgoing: 0.8

Incoming: Look up and state reported Ka for CC(C)c1cn([C@@H]2O[C@@H]3COP(=O)(O)O[C@H]3[C@H]2O)c(=O)nc1N.N
Outgoing: 0.8

Incoming: Look up and state reported Ka for Nc1ccn([C@@H]2O[C@@H]3COP(=O)(O)O[C@H]3[C@H]2O)c(=O)n1
Outgoing: 0.03

Incoming: Look up and state reported Ka for CCCCCCc1cn([C@@H]2O[C@@H]3COP(=O)(O)O[C@H]3[C@H]2O)c(=O)nc1N.N
Outgoing: 0.8

Incoming: Look up and state reported Ka for CCCCc1cn([C@@H]2O[C@@H]3COP(=O)(O)O[C@H]3[C@H]2O)c(=O)nc1N.N
Outgoing: 0.8
